Assayed target: T1, HMMW micropeptide (recombinant, purified from Escherichia coli BL21) (human)
T1 construct: also called purified HMMW micropeptide; human HMMW micropeptide
T1 peptide: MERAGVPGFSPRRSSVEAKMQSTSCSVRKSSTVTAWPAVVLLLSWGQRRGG
Assay: indirect ELISA, HMMW micropeptide coated at 1 ug/ml, antibody dilution 1:12.5K
Quantity kind: ELISA reading at antibody dilution 1:12.5K
A bare number is all that is needed in reply.

See these solved cases before continuing.
Binder	Measured value
Anti-HMMW antibody-5 (antibody, V domains shown, Mouse monoclonal antibody from a BALB/c x SP2/0 hybridoma; also called anti-HMMW-5 antibody) VH: EVKLEESGGGLVQPGGSMKLSCVVSGFTFSNYWMNWVRQSPERGLEWVAEIKLKSNNYATLYAASVKGRFTISRDDSKSSVYLQVNNLRTEDTGIYYCITEIFDYWGQGTTLTVSS VL: QTVVTQESALTTSPGETVTLTCRSSTGSVTTSNYATWVQEKPDHLFTGLIVGANNRAPGVPARFSGSLIGDKAALTITGAQTEDEAIYFCALWFIDHWVFGGGTKLTVL	2.56
Anti-HMMW antibody-6 (antibody, V domains shown, Mouse monoclonal antibody from a BALB/c x SP2/0 hybridoma; also called anti-HMMW-6 antibody) VH: EVKLEESGGGLVQPGGSMKLSCVASGFTFSNYWMNWVRQSPEKGLEWVAEIRLKSNNYATHYAESVTGRFTISRDDSKSSVYLQMNNLRAEDTGIYYCTLEAVDYWGQGTSVTVSS VL: DIVMTQAAFSNPVTLGTSASISCRSSKSLLHSDGITYLYWFLQKPGQSPQLLIYQMSNLASGVPDRFSSSGSGTDFTLRISRVEAEDVGVYYCAQNLELPTFGGGTKLEIK	2.96

Switching to the query record.
Challenge: I have this binder here, Anti-HMMW antibody-2 (antibody, V domains shown, Mouse monoclonal antibody from a BALB/c x SP2/0 hybridoma; also called anti-HMMW-2 antibody) VH: EVKLEESGGGLVQPGGSMKVSCVGSGFTFSNYWMNWVRQSPEKGLEWVAEIRLKSNNYATHYAESVKGRFTISRDDSKRSVYLQMNNLRVEDTGIYYCTTEAVDYWGQGTSVTVSS VL: DIVMTQAAFSNPVTLGTSASISCRSSKSLLHSNGITYLYWYLQKPGQSPQLLIYQMSNLASGVPDRFSSSGSGTDFTLRISRVEAEDVGVYYCAQNLELPTFGGGTKLEIKR , and I need its recorded ELISA reading at antibody dilution 1:12.5K.
Response given: 3.23
